Value source: PubChem BioAssay (NCATS)

measurement description: Drug repurposing screens with cells derived from glioblastoma tumor samples (AID 1345199); note: potency is the fitted concentration of half-maximal effect; nearly all actives have a fitted effect of over 40% in size
setup conditions: GBM patient neurospheres viability, ATP luminescence, 48 h; tumour line D
Records with an inconclusive call do not appear. Calls of active or inactive are those of the source. Calls come from the whole dose curve; as a rule, active = well fitted inhibition curve with a large enough effect; inconclusive = small, poorly fitted or top-dose-only effect; inactive = flat fitted curve, though single readings scatter.
measure: Potency

These solved cases illustrate the format of a correct answer.
Cc1cccc(N(C)C(=S)Oc2ccc3c(c2)CCC3)c1: 20 µM (active)
Nc1c2ccccc2nc2ccccc12: 10 µM (active)
O=C(Nc1ccc(S(=O)(=O)N2CCOCC2)cc1)c1cc(Cl)ccc1NS(=O)(=O)c1ccc(Cl)s1: 15.8 µM (active)
CCCCNc1ccc(C(=O)OCCN(CC)CC)cc1: 14.1 µM (active)

We now examine a further molecule.
Kindly note the recorded Potency for Nc1ccc2cc3ccc(N)cc3nc2c1 , which is 7.94 µM (active)
